# assayTarget: FITC-labeled CFTRpS753pS768 peptide (no 14-3-3) (Homo sapiens)
# Construct: made in house; host or cells: synthetic peptide
# experimentDescription: Dose-response FP control assay in the absence of 14-3-3
# Format: binding
# experimentalContext: No 14-3-3; compound 0.00025 M
# FP signal per record follows
Give the value as a plain number.

molecule="C=CC(C)(C)OC[C@H]1O[C@H](O[C@@H]2C3=C([C@H](C)COC(C)=O)C[C@H](O)[C@]3(C)/C=C3/[C@@H](COC)CC[C@H]3[C@@H](C)[C@H]2O)[C@H](O)[C@@H](OC(C)=O)[C@@H]1O [FC-A, fusicoccin A, reference compound]" readouttype="FP signal" observedresult=104
molecule="CC1NC(=O)C(CCCNC(=N)N)NC(=O)C2CCCN2Cc2cccc(c2)-c2ccccc2CNC(=O)C(CCCNC(=N)N)NC1=O (stereo not drawn)" readouttype="FP signal" observedresult=186

--- query ---
Please report FP signal for the following molecule: N=C(N)NCCCC1NC(=O)C(CCCCN)NCc2ccccc2Sc2ccccc2CNC(=O)C(Cc2ccc(O)cc2)NC1=O (stereo not drawn) 143

====

# FP signal per record follows
# assayTarget: 14-3-3β/CFTRpS753pS768 complex (Homo sapiens, UniProt P13569+P31946)
# Construct: His6 (cleaved yes); made in house; peptide synthetic
# Sequence (P31946 whole entry): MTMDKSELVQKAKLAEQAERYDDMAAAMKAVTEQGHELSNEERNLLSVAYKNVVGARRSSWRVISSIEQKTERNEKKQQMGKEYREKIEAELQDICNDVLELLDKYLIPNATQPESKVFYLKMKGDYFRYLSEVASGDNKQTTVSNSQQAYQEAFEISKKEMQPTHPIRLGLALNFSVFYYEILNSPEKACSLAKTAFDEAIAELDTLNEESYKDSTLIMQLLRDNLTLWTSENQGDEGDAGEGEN
# Sequence (P13569 747-774 limits assumed): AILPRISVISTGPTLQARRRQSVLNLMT
# experimentDescription: Dose-response fluorescence polarization (FP) assay, compound titration
# Type: binding
# experimentalContext: With 14-3-3; compound 1.5625e-5 M
Give the value as a plain number.

Please report FP signal for the following compound: N=C(N)NCCCC1NCc2ccccc2Sc2ccccc2CNC(=O)C(Cc2ccc(O)cc2)NC(=O)C(CCCN)NC1=O (stereo not drawn) 52

Please report FP signal for the following compound: N=C(N)NCCCC1NC(=O)C(CCC(N)=O)NC(=O)C(CCCNC(=N)N)NC(=O)C2CCCN2Cc2cccc(c2)-c2ccccc2CNC1=O (stereo not drawn) [CY007455] 15

Please report FP signal for the following compound: N=C(N)NCCCC1NC(=O)C(CCCCN)NCc2ccccc2Sc2ccccc2CNC(=O)C(Cc2ccc(O)cc2)NC1=O (stereo not drawn) 9

Please report FP signal for the following compound: NCCCCC1NCc2ccccc2Sc2ccccc2CNC(=O)C(Cc2cccc(Cl)c2)NC(=O)C(Cc2ccc(O)cc2)NC1=O (stereo not drawn) 16

Please report FP signal for the following compound: CN1CC(=O)NC(CCCNC(=N)N)C(=O)NC(CCC(N)=O)C(=O)NC(CCCNC(=N)N)C(=O)NCc2ccccc2-c2cccc(c2)C1 (stereo not drawn) 9

Please report FP signal for the following compound: C=CC(C)(C)OC[C@H]1O[C@H](O[C@@H]2C3=C([C@H](C)COC(C)=O)C[C@H](O)[C@]3(C)/C=C3/[C@@H](COC)CC[C@H]3[C@@H](C)[C@H]2O)[C@H](O)[C@@H](OC(C)=O)[C@@H]1O [FC-A, fusicoccin A, reference compound] 37

Please report FP signal for the following compound: N=C(N)NCCCC1NC(=O)C(CCC(N)=O)NC(=O)C(CCCNC(=N)N)NC(=O)C2CCCN2Cc2cccc(c2)-c2ccccc2CNC1=O (stereo not drawn) [CY007458] 15

Please report FP signal for the following compound: CC1NC(=O)C(CCCNC(=N)N)NC(=O)C2CCCN2Cc2cccc(c2)-c2ccccc2CNC(=O)C(CCCNC(=N)N)NC1=O (stereo not drawn) 13

Please report FP signal for the following compound: NCCCC1NCc2ccccc2Sc2ccccc2CNC(=O)C(Cc2c[nH]c3ccccc23)NC(=O)C(Cc2ccccc2)NC1=O (stereo not drawn) 52

====

# assayTarget: FITC-labeled CFTRpS753pS768 peptide (no 14-3-3) (Homo sapiens, UniProt P13569)
# Construct: made in house; host or cells: synthetic peptide
# experimentDescription: Dose-response FP control assay in the absence of 14-3-3
# Format: binding
# experimentalContext: No 14-3-3; compound 953.7 pM
readoutType: FP signal

Please report FP signal for the following molecule: N=C(N)NCCCC1NC(=O)C(CCC(N)=O)NC(=O)C(CCCNC(=N)N)NC(=O)C2CCCN2Cc2cccc(c2)-c2ccccc2CNC1=O (stereo not drawn) [CY007455] 6

Please report FP signal for the following molecule: CN1CC(=O)NC(CCCNC(=N)N)C(=O)NC(CCC(N)=O)C(=O)NC(CCCNC(=N)N)C(=O)NCc2ccccc2-c2cccc(c2)C1 (stereo not drawn) 5

Please report FP signal for the following molecule: CC1NC(=O)C(CCCNC(=N)N)NC(=O)C2CCCN2Cc2cccc(c2)-c2ccccc2CNC(=O)C(CCCNC(=N)N)NC1=O (stereo not drawn) 3

====

# assayTarget: FITC-labeled CFTRpS753pS768 peptide (no 14-3-3) (Homo sapiens, UniProt P13569)
# Construct: made in house; host or cells: synthetic peptide
# experimentDescription: Dose-response FP control assay in the absence of 14-3-3
# Type: binding
# experimentalContext: No 14-3-3; compound 7.6294e-9 M
# FP signal per record follows
Give the value as a plain number.

compound="N=C(N)NCCCC1NCc2ccccc2Sc2ccccc2CNC(=O)C(Cc2ccc(O)cc2)NC(=O)C(CCCN)NC1=O (stereo not shown)" readouttype="FP signal" observedresult=4

Please report FP signal for the following compound: CC1NC(=O)C(CCCNC(=N)N)NC(=O)C2CCCN2Cc2cccc(c2)-c2ccccc2CNC(=O)C(CCCNC(=N)N)NC1=O (stereo not shown) 5

Please report FP signal for the following compound: N=C(N)NCCCC1NC(=O)C(CCCCN)NCc2ccccc2Sc2ccccc2CNC(=O)C(Cc2ccc(O)cc2)NC1=O (stereo not shown) 3

Please report FP signal for the following compound: NCCCCC1NCc2ccccc2Sc2ccccc2CNC(=O)C(Cc2cccc(Cl)c2)NC(=O)C(Cc2ccc(O)cc2)NC1=O (stereo not shown) 7

====

# assayTarget: FITC-labeled CFTRpS753pS768 peptide (no 14-3-3) (Homo sapiens, UniProt P13569)
# Construct: made in house; host or cells: synthetic peptide
# experimentDescription: Dose-response FP control assay in the absence of 14-3-3
# Type: binding
# experimentalContext: No 14-3-3; compound 0.001 M
# Protocol: The 14-3-3β concentration used for the FP screening assay was 10 μM (dashed line). c HTS FP assay of the Cyclenium library. The samples contain 100 nM of FITC-CFTR_pS753pS768 peptide, 10 μM 14-3-3β, and 50 μM compound. FC-A (100 µM) was added as a positive control and DMSO as the negative control. Hit compounds are defined as a polarization increase which is higher than 20% of the response of FC-A. Red squares are compounds that appeared positive in the negative control without 14-3-3. […]
# FP signal per record follows
Give the value as a plain number.

// known answers, use as guide
compound="N=C(N)NCCCC1NC(=O)C(CCC(N)=O)NC(=O)C(CCCNC(=N)N)NC(=O)C2CCCN2Cc2cccc(c2)-c2ccccc2CNC1=O (stereo not drawn) [CY007458]" assaytarget="FITC-labeled CFTRpS753pS768 peptide (no 14-3-3) (Homo sapiens, UniProt P13569)" observedresult=252
compound="NCCCCC1NCc2ccccc2Sc2ccccc2CNC(=O)C(Cc2cccc(Cl)c2)NC(=O)C(Cc2ccc(O)cc2)NC1=O (stereo not drawn)" assaytarget="FITC-labeled CFTRpS753pS768 peptide (no 14-3-3) (Homo sapiens, UniProt P13569)" observedresult=224
compound="CC1NC(=O)C(CCCNC(=N)N)NC(=O)C2CCCN2Cc2cccc(c2)-c2ccccc2CNC(=O)C(CCCNC(=N)N)NC1=O (stereo not drawn)" assaytarget="FITC-labeled CFTRpS753pS768 peptide (no 14-3-3) (Homo sapiens, UniProt P13569)" observedresult=257
compound="NCCCC1NCc2ccccc2Sc2ccccc2CNC(=O)C(Cc2c[nH]c3ccccc23)NC(=O)C(Cc2ccccc2)NC1=O (stereo not drawn)" assaytarget="FITC-labeled CFTRpS753pS768 peptide (no 14-3-3) (Homo sapiens, UniProt P13569)" observedresult=248
compound="CN1CC(=O)NC(CCCNC(=N)N)C(=O)NC(CCC(N)=O)C(=O)NC(CCCNC(=N)N)C(=O)NCc2ccccc2-c2cccc(c2)C1 (stereo not drawn)" assaytarget="FITC-labeled CFTRpS753pS768 peptide (no 14-3-3) (Homo sapiens, UniProt P13569)" observedresult=240

Please report FP signal for the following compound: N=C(N)NCCCC1NC(=O)C(CCCCN)NCc2ccccc2Sc2ccccc2CNC(=O)C(Cc2ccc(O)cc2)NC1=O (stereo not drawn) 252

Please report FP signal for the following compound: C=CC(C)(C)OC[C@H]1O[C@H](O[C@@H]2C3=C([C@H](C)COC(C)=O)C[C@H](O)[C@]3(C)/C=C3/[C@@H](COC)CC[C@H]3[C@@H](C)[C@H]2O)[C@H](O)[C@@H](OC(C)=O)[C@@H]1O [FC-A, fusicoccin A, reference compound] 133

Please report FP signal for the following compound: N=C(N)NCCCC1NC(=O)C(CCC(N)=O)NC(=O)C(CCCNC(=N)N)NC(=O)C2CCCN2Cc2cccc(c2)-c2ccccc2CNC1=O (stereo not drawn) [CY007455] 244

Please report FP signal for the following compound: N=C(N)NCCCC1NCc2ccccc2Sc2ccccc2CNC(=O)C(Cc2ccc(O)cc2)NC(=O)C(CCCN)NC1=O (stereo not drawn) 271

These measurements were taken from paper PMC9226124.
